Hey, just so you know, these numbers are from ChEMBL document CHEMBL1145177.

Reported IC50 values are given for each entry in this list.
- Test system: A549
- Assay Summary: Inhibitory concentration value against human A-549 tumor cell line
- Type: functional, cell-based
Parameter Measured: IC50

[[record]]
smiles_code = "CN(C)c1c([N+](=O)[O-])cc(/C=C/c2ccc3ccccc3c2)cc1[N+](=O)[O-]"
parameter_measured = "IC50"
readout_value = "> 5000 nM"

[[record]]
smiles_code = "COc1cc(/C=C/c2ccc3c(c2)c2ccccc2n3C)cc(OC)c1OC"
parameter_measured = "IC50"
readout_value = "530 nM"

[[record]]
smiles_code = "COc1c(N)cc(/C=C\\c2ccc3ccccc3c2)cc1N"
parameter_measured = "IC50"
readout_value = "> 5000 nM"

